Hi there, I'd appreciate the recorded koff for every entry that follows.
- experimental_system: cynomolgus monkey heterodimeric single-chain CD3εγ extracellular domain (cynomolgus monkey, UniProt Q95LI5 22-117; Q95LI7 23-113)
- Sequence (Q95LI7 other isoform, or with tags, fused parts or gaps): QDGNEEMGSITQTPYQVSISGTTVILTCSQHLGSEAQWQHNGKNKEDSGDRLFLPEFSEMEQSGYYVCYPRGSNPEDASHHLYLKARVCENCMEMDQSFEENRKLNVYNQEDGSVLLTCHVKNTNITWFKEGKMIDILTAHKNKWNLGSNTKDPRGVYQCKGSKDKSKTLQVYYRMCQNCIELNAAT
- measurement_notes: SPR, rabbit IgG captured, cyno single-chain CD3εγ ECD injected
One number for each entry, in s⁻¹.

Worked cases, answers included:
binder | numeric_value
clone-04 (antibody, V domains shown, Recombinant rabbit IgG; also called Clone 4) VH: QSLEESGGRLVKPDETLTLTCTVSGFPLSSYAMGWFRQAPGKGLEWIGMILRSDNTYYASWAKGRFTISKTSTTVDLKITSPTTEDTATYFCARRHYNASGNPIAIGDLWGPGTLVTVSS VL: AQVLTQTPSSVSAAVGGTVTINCQSSQSVYNNNRLSWFQQKPGQPPKLLIYTTSSLASGVPSRFKGSGSGTEFTLTISDLECADAATYYCQGEFSCSRADCFNFGGGTEVVVKG | 0.00266
clone-09 (antibody, V domains shown, Recombinant rabbit IgG) VH: QSLEESGGRLVTPGTPLTLTCTVSGFPLNRYAMLWVRQAPGKGLEWIGLITRADKKYYASWAKGRFTISKTSTTVDLEITGPTTEDTATYFCARRHYNTDGYPVAIGDLWGPGTLVTVSS VL: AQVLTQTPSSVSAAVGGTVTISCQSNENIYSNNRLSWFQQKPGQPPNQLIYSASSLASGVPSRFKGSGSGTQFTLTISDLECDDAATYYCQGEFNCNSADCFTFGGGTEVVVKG | 0.00269
clone-10 (antibody, V domains shown, Recombinant rabbit IgG) VH: QSLEESGGRLVTPGTPLTLTCTVSGFPLSSFAMLWVRQAPGKGLEWIGMIMRAHNMYYASWAKGRFTISKTSTTVDLEITSPTTEDTATYFCARRHYNTYGYPIAIGDLWGPGTLVTVSS VL: AQVLTQTPSSVSAAVGGTATISCQSNENIYSNNRLSWFQQKAGQPPNQLIYSASSLASGVPSRFKGSGSGTQFTLTISDLECDDAATYYCQGEFSCSSADCFTFGGGTEVVVKG | 0.00349
clone-11 (antibody, V domains shown, Recombinant rabbit IgG) VH: QSLEESGGRLVTPGTPLTLTCTVSGFPLSSYAMGWFRQAPGKGLEWIGMILRADNTYYASWVNGRFTISKTSTTVDLKITSPTTEDTATYFCARRHYNTYGYPVAIGDLWGPGTLVTVSS VL: AQVLTQTPSSVSAAVGGTVTINCQSSQSVYNNNRLSWFQQKPGQPPKLLIYTASSLASGVPSRFKGSGSGTEFTLTISDLECADAATYYCQGEFSCSSADCFTFGGGTEVVVKG | 0.00365

With those in mind, consider the next binder.
Note to self: koff recorded for clone-06 (antibody, V domains shown, Recombinant rabbit IgG; also called Clone 6) VH: QSVEESGGRLVTPGTPLTLTCTVSGFPLSSYAMIWVRQAPGKGLEWIGMILRAGNIYYASWVKGRVTISKTSTTVDLKITSPTTEDTATYFCARRHYNREGYPIGIGDLWGPGTLVTVSS VL: AQVLTQTPSSVSAAVGGTVTISCQSSESVYNNKRLSWFQQKPGQPPKQLIYTASSLASGVPSRFKGSGSGTQFTLTISDLECDDAATYYCQGEFTCSNADCFTFGGGTEVVVKG was 0.00397
